- test-protocol: yeast display, Sf9 membrane polyspecificity reagent, FACS + sequencing; frameworks hold sequencing errors
measurement-label: polyreactivity (PSR sort gate)

# example entries with known answers
1) QVQLVESGGGLVQAGGSLRLSCAASGSTFYKYTMGWYRQAPGKERELVAAISGSGTTTYYADSVKGRFTISRDNAKNTVYLQMNSLNPEDTAVYYCAASLYLYNSRITVRSHYYYWGQGTQVTVSS    high polyreactivity
2) QVQLVESGGGLVQAGGSLRLSCAASGFTFTAYDMGWYRQAPGKERELVAAISGSGGTTYYADSVKGRFTISRDNAKNTVYLQMNSLKPEDTAVYYCAVDVPSPGGYDSWGQGTQVTVSS    low polyreactivity
3) QVQLVESGGGLVQAGGSLRLSCAASGITFVTYAMGWYRKAPGKERELVAAISRSGGRTYYADSVKGRFTISRDNAKNTVYLQMNSLKPEDTAVYYCAAERKNKYDYWGQGTQVTVSS    high polyreactivity
4) QVQLVESGGGLVQAGGSLRLSCAASGSTFLYYAMGWYRQAPGKEREFVAAISISGGSTYYADSVKGRFTISRDNAKNTVYLQMNSLKPEDTAVYYCAARKKEYKPGNYWGQGTQVTVSS    low polyreactivity

Consider the record given below.
Query: polyreactivity (PSR sort gate); subject: "QVQLVESGGGLVQAGGSLRLSCAASGYTFLVYTKGWYRQAPGKERELVATISWSGTSTDYADSVKGRFTISRDNAKNTVYLQMNSLKPEDTAVYYCNAKYPRAYLYGYKLFDSWGQGTQVTVSS"
high polyreactivity
